Give measured cytotoxicity at 70.5 h for each item. Keep answers brief.
- PROCEDURE SUMMARY: Human HepG2 cell viability assay in 384 well format
- Format: toxicity, cell-based
- Set-up: dose 125 nL, time 70.5 hour; concentration not given beside the values
- CONDITIONS: HepG2 cells, read-out: Inhibition
Give the quantity in %, number only.

Q) Can you look up the measured cytotoxicity at 70.5 h of NC(c1ccc(Cl)cc1)c1cccs1 (centres undefined) for me?
A) 9.24

Q) Recorded cytotoxicity at 70.5 h of CNS(=O)(=O)Cc1ccc(CNC(=O)c2ccccn2)cc1 , please.
A) -9.74

Q) Value lookup for cytotoxicity at 70.5 h; key = O=c1cc(-c2cccnc2)nc(-c2ccc(CN3CC[C@H](O)C3)cc2)[nH]1
A) 9.56

Q) // lookup cytotoxicity at 70.5 h for O=C(Nc1cnn(CC(F)F)c1)c1cccc(-n2cnnn2)c1
A) -1.49

Q) What value of measured cytotoxicity at 70.5 h is listed for COc1ccccc1C(=O)N1CC2(COC(C)(C)OC2)C1 ?
A) -0.0905

Q) Need cytotoxicity at 70.5 h, item Cc1nn(C)c2c(N3CCN(C(=O)C4CCC4)CC3)ncnc12
A) -5.94

Q) What value of measured cytotoxicity at 70.5 h is listed for CCCc1cc(C(=O)NCCn2nc3ccccn3c2=O)[nH]n1 ?
A) -9.65

Q) What cytotoxicity at 70.5 h value was documented for this compound, COCc1cccc(C(=O)N(C)Cc2ncc(C)c(OC)c2C)c1 ?
A) -8.49

Q) So what's the measured cytotoxicity at 70.5 h for this one? CC(C)N1CC(C(=O)N2CCc3c(nc(CC4CC4)[nH]c3=O)C2)CC1=O (centres undefined)
A) -2.23

Q) # cytotoxicity at 70.5 h lookup, item CC(NC1(CNS(C)(=O)=O)CCCC1)c1ccccc1 (centres undefined)
A) -16.9

Q) Give its cytotoxicity at 70.5 h value. Item: CN(C)C(=O)NCc1ncn2c1CN(Cc1ccco1)CCC2
A) -6.46

Q) Can you look up the measured cytotoxicity at 70.5 h of Cc1nc2c(c(NCc3cc4ccccc4s3)n1)CCNCC2 for me?
A) -5.12

Q) I'd like to know its cytotoxicity at 70.5 h. The compound in question is CS(=O)(=O)N1CCN(C(=O)CN2CCCc3c(F)cc(F)cc32)CC1
A) -3.95

Q) # get_value(readout='cytotoxicity at 70.5 h', item= N#Cc1cccc(NC(=O)N[C@H](CO)Cc2ccc(O)cc2)c1 )
A) -9.73

Q) Can you look up the measured cytotoxicity at 70.5 h of Cc1ccc2c(c1)C1(CC2)CCN(CC(=O)O)CC1 for me?
A) 5.44

Q) Please report the recorded cytotoxicity at 70.5 h for CC(=O)NCCc1ccc(S(=O)(=O)N(CC(C)C)C(C)C)s1 .
A) 33

Q) Please look up its cytotoxicity at 70.5 h: COc1cc(-c2ccc(F)c3c2OC(CN)C3)cc(OC)c1OC (centres undefined)
A) 6.54

Q) Given the entry COc1cc(N2CCC3(C2)CN(c2cccnc2)C(=O)CN3C)ncn1 (centres undefined) , report its measured cytotoxicity at 70.5 h.
A) -4.78

Q) Please give the measured cytotoxicity at 70.5 h for this compound: COCCN(C(=O)c1ccc(OC)cc1)c1ccc(C#N)cc1
A) 10.5

Q) State the recorded cytotoxicity at 70.5 h for this entry: c1cnnc(N2CCCC(NCc3cn4ccccc4n3)C2)c1 (centres undefined)
A) 15.8

Q) I would be grateful if you could share the reported cytotoxicity at 70.5 h for CN1N=C(C(=O)N2CCCC(n3ccnc3)C2)CCC1=O (centres undefined) .
A) -7.88

Q) If you can, please state the reported cytotoxicity at 70.5 h value of O=C(C1CCCCC1)N1CCC2(CCCN2CC2CC2)CC1 .
A) -2.81

Q) May I ask what cytotoxicity at 70.5 h has been recorded for CN(C)S(=O)(=O)N1CCCC(c2cccc(Cc3ccc(Cl)cc3)n2)C1 (centres undefined) ?
A) 17.5

Q) Look at this compound and give its reported cytotoxicity at 70.5 h. Brc1cccc(-c2noc(C3COCCO3)n2)c1 (centres undefined)
A) -9.75

Q) Can you look up the measured cytotoxicity at 70.5 h of CCc1cccc(OCC(=O)NC(C)c2nnc3n2CCC3)c1 (centres undefined) for me?
A) -3.83

Q) // cytotoxicity at 70.5 h lookup, key: CC(NCCn1cccn1)c1ccccc1Cl (centres undefined)
A) 10.3

Q) Entry under review: Cc1csc(N2CCN(CC(=O)Nc3c(C)n[nH]c3C)CC2C)n1 (centres undefined) . Reported cytotoxicity at 70.5 h?
A) 7.7

Q) Look up cytotoxicity at 70.5 h: CN(Cc1ccsc1)C(=O)c1cc2c([nH]c1=O)CCC2
A) -4.53

Q) I am curious: what cytotoxicity at 70.5 h value has been reported for CC(c1cccnc1)N(C)Cc1cc2cc3c(cc2[nH]c1=O)OCO3 (centres undefined) ?
A) 2.59

Q) # cytotoxicity at 70.5 h lookup, item Cc1csc(Nc2nccnc2C2CCCN2C(=O)C(C)C)n1 (centres undefined)
A) -18.2

Q) What value of measured cytotoxicity at 70.5 h is listed for COc1cc(N2CC3(CCN(S(C)(=O)=O)C3)C2)ncn1 ?
A) -12

Q) Please look up its cytotoxicity at 70.5 h: CNC(=O)CS(=O)(=O)C1CCN(S(=O)(=O)c2cccnc2)CC1
A) -3.91

Q) Recorded cytotoxicity at 70.5 h for CCN(C(C)=O)C1CCN(c2nccc(C3CCCC3)n2)C1 (centres undefined) , please?
A) -30.2

Q) Which cytotoxicity at 70.5 h is reported for this compound? CNC(=O)CCCNc1cc(C)nc2cc(C)nn12
A) 5.3

Q) Requested field: cytotoxicity at 70.5 h. Item: CC(C(=O)O)N1CC2(CCC1=O)CCN(CCSc1ccccc1)CC2 (centres undefined)
A) -13.8

Q) May I ask what cytotoxicity at 70.5 h has been recorded for Cn1cc(Br)c(C(=O)NCCn2cc(Br)cn2)n1 ?
A) 8.47

Q) cytotoxicity at 70.5 h for O=C(CN(Cc1cccnc1)CC1CCCO1)Nc1ccc(F)cc1 (centres undefined) ?
A) 2.4

Q) I am curious: what cytotoxicity at 70.5 h value has been reported for Cn1c(Cn2ccnc2)nnc1C1CCCN(c2ncccn2)C1 (centres undefined) ?
A) -9.36

Q) Quick one: cytotoxicity at 70.5 h of CS(=O)(=O)Cc1ccc(CNc2ncc(C#N)cc2Cl)cc1 ?
A) 1.58

Q) # query: cytotoxicity at 70.5 h of entry O=C(CN1CCCCCC1)NCCSc1cnn[nH]1
A) 0.00682

Q) What does the record list as cytotoxicity at 70.5 h for C[C@@H]1CN(Cc2c[nH]c(CC3CCCC3)n2)CC[C@]1(C)O ?
A) -9.37

Q) Could you tell me which cytotoxicity at 70.5 h is on file for O=C1NCCO[C@H]2CN(C(=O)CCc3ccccc3Cl)CC[C@@H]12 ?
A) 22.6

Q) Endpoint output: cytotoxicity at 70.5 h of CC1=C[C@@H](CN2CCN(C)CC2)[C@H](C(C)C)C[C@H]1Cc1nnc(C)o1 . Value?
A) -9.92

Q) Which cytotoxicity at 70.5 h value belongs to O=C(Cc1cccs1)N1CC(c2nc(-c3cnccn3)no2)C1 ?
A) -6.93
